Assay Target: COUP transcription factor 2 (Homo sapiens) (UniProt P24468)
Sequence (P24468 whole entry, looked up): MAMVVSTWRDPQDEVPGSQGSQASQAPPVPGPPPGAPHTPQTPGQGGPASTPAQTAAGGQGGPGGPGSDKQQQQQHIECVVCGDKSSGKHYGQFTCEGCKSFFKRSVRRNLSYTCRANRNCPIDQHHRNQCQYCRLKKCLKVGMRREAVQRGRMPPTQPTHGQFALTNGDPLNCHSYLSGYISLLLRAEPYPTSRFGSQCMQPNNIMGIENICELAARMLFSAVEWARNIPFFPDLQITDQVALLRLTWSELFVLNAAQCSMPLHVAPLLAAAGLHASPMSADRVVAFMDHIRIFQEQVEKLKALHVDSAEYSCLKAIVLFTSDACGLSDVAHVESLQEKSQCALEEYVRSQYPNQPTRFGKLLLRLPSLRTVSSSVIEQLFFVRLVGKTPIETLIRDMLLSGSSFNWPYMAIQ
Protocol Summary: COUP-TFII reporter suppression in human cells – cell-based, luciferase reporter, HEK293T, luminescence, primary screen (AID 686940);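 note: cells cotransfected with COUP-TFII expression vector driving the NGFI-A reporter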
Settings: HEK293T NGFI-A luciferase reporter, at 8.6 µM
The whole screen tested about 370,000 compounds, of which about 2,600 (0.7%) were called active.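 Rule for the calls: active = inhibition above a per-plate cutoff, mean inhibition of test wells between control levels plus 3 SD (cut at about 38% in these data); inactive = the rest.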 Shown is part of a subset that was picked to be rich in actives.
A correct response names exactly one class from active, inactive

COC(=O)CC1CCc2cc(C)cc(C(CC(C)C)NC(=O)[C@H](CC(C)C)NC(=O)OCc3ccccc3)c2O1 (some centres undefined) ... inactive
COC(=O)[C@]12C[C@H](CC(=O)NCc3ccccc3)C(=O)N(Cc3ccccc3)C1=C[C@H](COCc1ccccc1)O[C@@H]2C ... inactive
CCCNC(=O)c1ccccc1NC(=O)CSCc1ccc(OC)cc1 ... inactive
COc1ccc(NC(=O)CCCN2C(=O)C(c3ccccc3)Oc3cccnc32)cc1 (centres undefined) ... inactive

Req: Kindly provide the recorded test outcome for the following molecule: COc1ccc(/C=C2/SC(=O)N(CCCCCC(=O)Nc3ccccc3C(=O)O)C2=S)cc1
Resp: active

Req: Could you kindly confirm the outcome this assay logged for CC(CCN1CCC(C(O)(c2ccccc2)c2ccccc2)CC1)Oc1ccc(Cl)cc1 (centres undefined) ?
Resp: inactive

Req: Assay result, entry CCN(C(=O)[C@@H](C1CC1)[C@@H](O)c1ccc2ccccc2c1)c1ccccc1 — outcome?
Resp: inactive

Req: Tell me the recorded outcome of this test for CC(C)(C)OC(=O)NCc1cc(F)ccc1/C=C/S(=O)(=O)NCCc1ccccc1 .
Resp: inactive

Req: How did this test come out for CN(CCO)c1cccc2c1S(=O)(=O)N(Cc1cn(Cc3ccc(C(F)(F)F)cc3)nn1)Cc1ccccc1O2 ?
Resp: inactive

---

Assay Target: COUP transcription factor 2 (Homo sapiens) (UniProt P24468)
Protocol Summary: COUP-TFII reporter suppression in human cells – cell-based, luciferase reporter, HEK293T, luminescence, primary screen (AID 686940);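 note: cells cotransfected with COUP-TFII expression vector driving the NGFI-A reporter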
Settings: HEK293T NGFI-A luciferase reporter, at 8.6 µM, active compounds read high
About 2,600 (0.7%) of roughly 370,000 compounds were called active. The sample as a whole holds a higher share of actives than the screen did.
Rule: inhibition under 10% gives NO, otherwise YES.

Use the examples below as a reference point.
CN(c1ccc2nc3ccccc3c(=O)n2n1)C1CCCCC1 ... YES
CN(Cc1cccnc1)C(=O)c1cc(COc2ccc3ncccc3c2)on1 ... YES
COC(=O)C12C=C3CC(c4ccccc4)=C3C(=O)N1Cc1[nH]c3ccccc3c1C2 (stereo not given) ... NO
CCOC(=O)[C@]12CCCCC/C=C\1N(Cc1ccc(OC)cc1)C(=O)[C@H]2CC(=O)N1CCOCC1 ... YES

Req: Please check the record O=C(Nc1cccc(Cl)c1)OC1CC2CC1[C@H]1CCCCN1[C@H]2Cc1ccccc1 (stereo not given in full) and state if its inhibition is at or above 10%.
Resp: YES

Req: For this compound, is measured inhibition 10% or higher? CCn1ccnc1CN(C)C(=O)c1cc(COc2ccc(Cl)cc2OC)on1
Resp: NO

Req: Could you tell me if the measured inhibition of Cc1cccc(C(=O)Nc2c(-c3ccc(F)cc3)nc3ncccn23)c1 reaches 10% or more?
Resp: NO

Req: Decide: inhibition of CCOc1ccc(NS(=O)(=O)c2ccc(Cl)c(C(=O)N(C)Cc3cccnc3)c2)cc1 >= 10%?
Resp: NO

Req: Confirm if inhibition reported for the compound CCCCN1C(=O)C(=O)N(CC(=O)Nc2cccc(C(C)=O)c2)C1=O is 10% or above.
Resp: NO

Req: Check this compound for inhibition at or above 10%: O=S1(=O)c2c(NCc3ccco3)cccc2Oc2ccccc2CN1Cc1cn(Cc2cccc(C(F)(F)F)c2)nn1
Resp: NO

---

Assay Target: COUP transcription factor 2 (Homo sapiens) (UniProt P24468)
Protocol Summary: COUP-TFII reporter suppression in human cells – cell-based, luciferase reporter, HEK293T, luminescence, primary screen (AID 686940);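 note: cells cotransfected with COUP-TFII expression vector driving the NGFI-A reporter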
Settings: HEK293T NGFI-A luciferase reporter, at 8.6 µM, active compounds read high
In all, about 370,000 compounds went through this assay and about 2,600 (0.7%) were called active. This excerpt belongs to a sample that is enriched for actives.
Threshold check on inhibition: at or above 10% gives y, strictly below gives n.

Examples from the recorded data:
COc1cccc(Cn2cc(COC(=O)Nc3ccc(F)cc3)nn2)c1 ... n
CCOC(=O)C1CCN(C(=O)C(C)(C)NC(=O)Nc2ccc(F)c(F)c2)CC1 ... n
O=C(NCCC1=CCCCC1)C1CCN(S(=O)(=O)c2ccc(Cl)s2)CC1 ... n

Req: hey, is inhibition for this one >= 10%? C=CCN1C(=O)[C@@H](CC(=O)NCCCCc2ccccc2)[C@]2(C(=O)OCC)CCCCC/C=C/12
Resp: n

Req: Say whether Cc1ccc(S(=O)(=O)N2CCCC(C(=O)N3CCN(C)CC3)C2)cc1 (stereo not given) shows inhibition of 10% or more.
Resp: n

Req: Hello, I need to know if Cc1ccc(C(=O)N(Cc2ccccn2)CC2CCCO2)cc1 (stereo not given) has measured inhibition not below 10%. Thanks!
Resp: n

Req: Check the entry CCOC(=O)c1ccc(NC(=O)CCn2c(=O)oc3ccccc32)cc1 : does inhibition equal or exceed 10%?
Resp: n

Req: Given CN1OC[C@@H]2CN(S(=O)(=O)c3cccc(C(F)(F)F)c3)[C@H](c3ccc(-c4cc5ccccc5o4)cc3)C[C@@H]21 , state whether its inhibition is at least 10%.
Resp: y

Req: Could you verify whether the entry COc1ccc(S(=O)(=O)N2C[C@H]3CON(C)[C@H]3C[C@H]2c2cccc(Br)c2)cc1 shows inhibition of no less than 10%?
Resp: y

Req: Tell me whether inhibition is at least 10% here: COc1ccnc(C(=O)N2CCC(Oc3cccnc3)CC2)c1
Resp: n

Req: Answer whether inhibition of COCC(=O)N[C@@H]1C[C@@H]2O[C@@H](CO)CC[C@@H]2O[C@@H]1CCc1ccc(-c2ccccc2)cc1 is greater than or equal to 10%.
Resp: n

Req: # check: inhibition of c1ccc(Cc2ccc(OCCn3ccnc3)cc2)cc1 is greater than or equal to 10%
Resp: y

---

Assay Target: COUP transcription factor 2 (Homo sapiens) (UniProt P24468)
Protocol Summary: COUP-TFII reporter suppression in human cells – cell-based, luciferase reporter, HEK293T, luminescence, primary screen (AID 686940);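 note: cells cotransfected with COUP-TFII expression vector driving the NGFI-A reporter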
Settings: HEK293T NGFI-A luciferase reporter, at 8.6 µM
Hit rate of the full screen: of about 370,000 compounds, about 2,600 (0.7%) were called active.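 How the source made its calls: active means inhibition above a per-plate cutoff, mean inhibition of test wells between control levels plus 3 SD (cut at about 38% in these data); inactive means the rest.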 The entries come from a sample that favours actives as a whole.
# output must be one of Yes (active), No (inactive)

Please review the following examples before continuing.
CCC(CO)Nc1cccc2c1S(=O)(=O)N(Cc1cn(Cc3ccccc3C(F)(F)F)nn1)Cc1ccccc1O2 (stereo unspecified) ... No
CCc1ccccc1NC(=O)CSc1nnc(-c2cccs2)o1 ... No

Shift focus to the following entry.
Req: So what was the verdict on Cn1c(CNC(=O)c2ccco2)nnc1SCC(=O)N1CCN(c2ccccc2)CC1 in this test?
Resp: No

---

Assay Target: COUP transcription factor 2 (Homo sapiens) (UniProt P24468)
Protocol Summary: COUP-TFII reporter suppression in human cells – cell-based, luciferase reporter, HEK293T, luminescence, primary screen (AID 686940);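 note: cells cotransfected with COUP-TFII expression vector driving the NGFI-A reporter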
Settings: HEK293T NGFI-A luciferase reporter, at 8.6 µM
The campaign covered roughly 370,000 compounds. About 2,600 (0.7%) were called active.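 How the source made its calls: active means inhibition above a per-plate cutoff, mean inhibition of test wells between control levels plus 3 SD (cut at about 38% in these data); inactive means the rest.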 Only a selection was taken, and actives are over-represented in it overall.
Respond with a class label; see true for active, false for inactive

Req: Look up the recorded call for OCCCNc1nccc(-c2cc(Nc3cccc(Cl)c3)ncn2)n1 in this test.
Resp: true

Req: What is the recorded call for this compound in the test? O=C(CCl)NC1CCCCN(Cc2cccc(C(F)(F)F)c2)C1=O (centres undefined)
Resp: false

Req: In this assay, the call recorded for COc1ccc2c(c1)c(=Cc1ccc(N(C)C)cc1)c1cc(-c3ccccc3)[n+](C)n12 was what?
Resp: true

Req: Name the outcome recorded for CCCCNC(=O)C[C@H]1C(=O)N(Cc2ccc(OC)cc2)C2=CCCC[C@@]21C(=O)OCC in the assay.
Resp: false

Req: For O=C(NCCCc1ccccc1)[C@H](Cc1ccccc1)NC1(C(=O)NCCc2c[nH]c3ccccc23)CCC1 , what call appears in the results of this test?
Resp: false

Req: Assay result, entry CCCCCCN1CCS(=O)(=O)N(Cc2ccc(C(F)(F)F)cc2)C(C(=O)OC)C1 (centres undefined) — outcome?
Resp: false

Req: What classification did N#Cc1ccc(OC[C@@H](O)CN2CCC(C(O)(c3ccccc3)c3ccccc3)CC2)c(F)c1 end up with in this test?
Resp: false

Req: Can you look up the reported call for C[C@H]1[C@H](NC(=O)c2cccc(N(C)C)c2)CC[C@@]23CCCN2C(=O)CCC[C@@H]13 for me?
Resp: false

Req: Which outcome was entered for the compound CC(=O)Nc1ccc(NC(=O)C2CCCN(S(=O)(=O)c3ccc(Cl)cc3)C2)cc1 (centres undefined) in this test?
Resp: false

Req: Which outcome did this test record for the compound CCn1c2ccccc2c2cc(NC(=O)CSc3nnc(-c4ccccc4)n3-c3ccc(C)cc3)ccc21 ?
Resp: false

Req: Lab log entry: Cc1ccc(NC(=O)c2ccc(S(=O)(=O)NCC3CCCO3)cc2)cc1C (centres undefined) — outcome as called in the assay?
Resp: false

Req: What was the test verdict on C#CCN([C@H](C(=O)OC)C(C)CC)S(=O)(=O)c1ccccc1Br (some centres undefined) ?
Resp: false

Req: Name the outcome recorded for O=C1CC(c2ccc3c(c2)OCO3)N=C2N(CC3CC3)C/C(=C/c3ccccc3)N12 (centres undefined) in the assay.
Resp: false

Req: For this compound, state the assay outcome: COC(=O)[C@]1(S(=O)(=O)c2ccccc2)C[C@@H]2ON=C(c3ccc(OC)cc3)[C@@H]2C1
Resp: false

Req: What did this assay record as the result for O=C(Nc1ccc(S(=O)(=O)N2CCOCC2)cc1)C1CCN(S(=O)(=O)c2ccc(Cl)cc2)CC1 ?
Resp: true

Req: I would be grateful if you could indicate the recorded call for Cc1cc(NS(=O)(=O)c2ccc(NC(=O)CSc3nnc(-c4ccc(C(C)(C)C)cc4)n3Cc3ccco3)cc2)nc(C)n1 .
Resp: false

Req: In this assay, the call recorded for O=C(NC1CCC1)c1ccc(C#CC2CC2)cn1 was what?
Resp: false

Req: How was O=C(CSc1nnc(-c2ccccn2)n1-c1ccc(Cl)cc1)Nc1ccccc1-c1ccccc1 classified in this test?
Resp: false

Req: Assay result, entry CC(CCN1CCC(C(O)(c2ccccc2)c2ccccc2)CC1)Oc1ccc([N+](=O)[O-])cc1Cl (centres undefined) — outcome?
Resp: false

Just for reference, PubChem BioAssay AID686940 is where these values come from.
